Please provide measured inhibition for the entries that follow.
target: RAC-gamma serine/threonine-protein kinase (Homo sapiens) (UniProt Q9Y243)
Sequence (Q9Y243 whole entry): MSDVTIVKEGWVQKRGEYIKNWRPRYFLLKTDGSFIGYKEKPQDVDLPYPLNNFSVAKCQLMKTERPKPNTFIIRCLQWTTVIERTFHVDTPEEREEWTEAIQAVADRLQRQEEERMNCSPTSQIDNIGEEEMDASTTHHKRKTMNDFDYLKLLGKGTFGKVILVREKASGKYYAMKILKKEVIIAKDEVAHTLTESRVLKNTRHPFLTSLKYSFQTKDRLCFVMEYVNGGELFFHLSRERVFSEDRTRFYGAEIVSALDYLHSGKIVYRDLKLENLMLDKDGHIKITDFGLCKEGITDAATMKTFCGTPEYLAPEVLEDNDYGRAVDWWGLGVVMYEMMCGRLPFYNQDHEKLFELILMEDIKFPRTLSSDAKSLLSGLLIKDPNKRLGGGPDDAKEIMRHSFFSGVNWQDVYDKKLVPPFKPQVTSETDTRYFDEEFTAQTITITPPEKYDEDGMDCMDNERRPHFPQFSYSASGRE
study.conditions: at 1 µM
Description: GSK_PKIS: AKT3 mean inhibition at 1 uM [Nanosyn]

Returns the measured inhibition for the input compound. Input: `NS(=O)(=O)c1ccc(N/N=C2\C(=O)Nc3ccc(-c4cnco4)cc32)cc1`
-0.96%

Any idea what its inhibition is? The compound is `N#Cc1ccc(Oc2nccc(-c3c(-c4ccc(F)cc4)ncn3C3CCNCC3)n2)cc1`
2.2%

I am curious: what inhibition value has been reported for `C/C(Nc1ccc(S(N)(=O)=O)cc1)=C1/C(=O)Nc2ccccc21` ?
-0.18%

Entry `COc1ccc2cc(-c3c(-c4ccncc4)nc(-c4ccc(S(C)(=O)=O)cc4C)n3C)ccc2c1` : reported inhibition = ?
4.98%

Quick check: inhibition of `COc1cccc(/C=N/Nc2ncnc3c2cnn3-c2cccc(OC)c2)c1` ?
3.67%

Any idea what inhibition was measured for `O=C(Nc1n[nH]c2nc(-c3ccco3)ccc12)C1CC1` ?
0.8%

// query inhibition value for entry `COc1ccc2ncn(-c3cc(O[C@H](C)c4ccccc4Cl)c(C(N)=O)s3)c2c1`
-1.2%

Could you share which inhibition value was measured for `COc1cc(N2CCN(C(C)C)CC2)ccc1Nc1nc(Nc2ccc(F)cc2C(=O)NC[C@@H](O)CO)c2cc[nH]c2n1` ?
-1.37%

What value of inhibition has been reported for the following compound? `NCc1ccc(-n2c(-c3nonc3N)nc3cnccc32)cc1`
20.5%

Looking for the measured inhibition of `C[C@@H](Oc1cc(-n2cnc3ccc(OCC4CCN(C)CC4)cc32)sc1C(N)=O)c1ccccc1Cl` , can you help?
3.81%

Query (compound): `CN(C)CCOc1ccc(-c2cc(-c3ccc4c(c3)CCC4=NO)c(-c3ccncc3)o2)cc1` ; field requested: inhibition
5.79%

Which measured inhibition value corresponds to `NC(=O)c1cc(-c2ccc(F)cc2)cc(-c2ccncc2)c1N` ?
4.31%

Can you share its inhibition? I mean this compound: `COc1cccc(-n2cnc3c(N/N=C/c4ccncc4)ncnc32)c1`
-3.32%

I am curious: what inhibition value has been reported for `CN1CCN(CCCNc2nc3ccc(Oc4ccc(NC(=O)Nc5cc(C(F)(F)F)ccc5F)cc4)cc3[nH]2)CC1` ?
-2.98%

Tell me the measured inhibition of `Cc1ccc(C(=O)NC(C)C)cc1-c1ccc(C(=O)NCC2CC2)cc1` , please.
-1.32%

----------
Provide the reported inhibition of each item.
target: Activated CDC42 kinase 1 (Homo sapiens);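 note: values are mean inhibition of TNK2, from the GSK PKIS screening dataset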
study.conditions: at 0.1 µM
Your answer should be a plain number; it is taken to be in %.

Any idea what inhibition was measured for `CCN(CC)Cc1ccc(Nc2nccc(-c3cnn4ncccc34)n2)cc1` ?
-0.16

Dear colleague, I am looking for the recorded inhibition of the following molecule: `Cc1ccc(C(=O)NC2CCC2)cc1-c1ccc(C(=O)NCC2CC2)cc1`
1.04

Consider the molecule `COc1cc2ncn(-c3cc(OCCc4ccccc4)c(C(N)=O)s3)c2cc1OC` and give its measured inhibition.
0.78

Record request: inhibition value, item `COc1cc2ncn(-c3cc(OCc4cccs4)c(C(N)=O)s3)c2cc1OC`
3.84

Return reported inhibition; argument: `COc1ccc2ncn(-c3cc(O[C@H](C)c4ccccc4Cl)c(C(N)=O)s3)c2c1`
0.31

Query: inhibition; subject: `COc1cccc(-n2cnc3c(N/N=C/c4ccncc4)ncnc32)c1`
0.06

Field request: inhibition | item: `COc1ccc(-c2ccc3c(NC(=O)C4CC4)n[nH]c3n2)cc1`
0.32

State the recorded inhibition for this entry: `CN(c1ccc(NC(=O)Nc2c(Cl)cccc2Cl)cc1)c1ccnc(Nc2cccc(CS(C)(=O)=O)c2)n1`
1.13

For the molecule `COc1cc(Nc2ncc3c(C)nc(-c4cccc(Oc5ccccc5)c4)n3n2)cc(OC)c1OC` , what inhibition is on record?
0.46

I'd like to know its inhibition. The molecule in question is Nc1nccc(-c2c(-c3ccc(F)cc3)ncn2C2CCC(O)CC2)n1 (stereo not given)
-0.32
